The following compounds are listed with their measured IC50 values.
- Measured Target: recombinant full-length human hydroxyacid oxidase 1 (HAO1), the equivalents of hGOX (Homo sapiens (Human))
- Sequence (Q9UJM8 whole entry): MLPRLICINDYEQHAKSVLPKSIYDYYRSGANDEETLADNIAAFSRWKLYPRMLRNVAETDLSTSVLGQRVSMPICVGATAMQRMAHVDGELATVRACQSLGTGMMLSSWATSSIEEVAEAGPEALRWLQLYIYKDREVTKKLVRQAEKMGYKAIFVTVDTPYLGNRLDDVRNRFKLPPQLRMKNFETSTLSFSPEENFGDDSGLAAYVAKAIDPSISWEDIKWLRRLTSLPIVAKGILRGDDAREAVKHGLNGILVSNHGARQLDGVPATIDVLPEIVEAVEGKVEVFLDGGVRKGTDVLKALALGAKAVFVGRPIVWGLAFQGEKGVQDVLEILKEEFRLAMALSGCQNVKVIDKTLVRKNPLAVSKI
- Test Method Notes: In-vitro human glycolate oxidase (hGOX) assay (Amplex red fluorescence)
- Condition Label: 6 nM recombinant human GO, 85 μM glycolate, 10 min preincubation
Number in nM, nothing else.

>>> recorded_value("O=C(O)c1nn[nH]c1Oc1ccc(Cl)c(C#Cc2ccccc2)c1")
4
>>> recorded_value("COc1cc(C#Cc2ccc(Oc3[nH]nnc3C(=O)O)cc2)ccn1")
3
>>> recorded_value("O=C(O)c1nn[nH]c1Cc1ccc(C#CCC2CC2)cc1")
94
>>> recorded_value("CS(=O)(=O)c1ccc(C#Cc2ccc(Oc3[nH]nnc3C(=O)O)cc2)cc1")
3
>>> recorded_value("O=C(O)c1nn[nH]c1Oc1ccc(C#CC2CCCC2)cc1")
18

## Task Sample Cc1cc(C#Cc2ccc(Oc3[nH]nnc3C(=O)O)cc2)ccn1 — what was its IC50?
## Result 3

## Task Sample O=C(O)c1ccc(C#Cc2cc(F)cc(Oc3[nH]nnc3C(=O)O)c2)cc1 — what was its IC50?
## Result 3

Value source: patent US11504367B2
